Source of measurements: paper PMC9482650

target or test system: T1, PDLIM3, Q53GG5
T1 sequence (Q53GG5 1-94, limits assumed, looked up): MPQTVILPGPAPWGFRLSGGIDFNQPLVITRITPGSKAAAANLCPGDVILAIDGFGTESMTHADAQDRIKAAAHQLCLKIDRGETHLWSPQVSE
protocol description: holdup assay
Parameters: key: below the threshold = too weak to quantify, mostly under pKd 3.1 to 4
reported conditions: plain residues with an end cap or a label only (N-terminal biotin on a linker: ttds)

| binder | pKd |
| --- | --- |
| SRPQRTQTQV [HPV67-E6, A4U7F2] | below the threshold |
| RSLEEEESQL [GRASP, Q7Z6J2] | below the threshold |
| QSARYRDTEL [TJP2, Q9UDY2] | below the threshold |
| PKTPPTDTSV [KIR3DL3, Q8N743] | below the threshold |
| STLTIFETAL [ABCC4, O15439] | 4.11 |
| SSRTRRETQL [HPV16-E6, P03126] | 3.88 |
| SVWLRKETRV [CYSLTR2, Q9NS75] | below the threshold |
